Target: T1, recombinant human IL-31 (hIL-31, BHK produced, A1277F, zcytor17lig CEE) (human, UniProt Q6EBC2 24-164)
T1 construct: also called recombinant hIL-31
T1 sequence: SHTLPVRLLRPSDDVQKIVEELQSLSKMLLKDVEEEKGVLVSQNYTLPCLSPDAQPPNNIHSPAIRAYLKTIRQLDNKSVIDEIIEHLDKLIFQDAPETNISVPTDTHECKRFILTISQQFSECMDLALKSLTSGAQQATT
Test: SPR (Biacore), against parent 292.12.3.1
recordedMetric: Relative potency loss (kd)

[
  {
    "binder": "humanized 292.12.3.1 construct clone 10 (12VH1-gly + LC(fback)) (antibody, human IgG4, V domains shown) VH: QVQLVQSGAEVKKPGASVKVSCKASGYTFTRYWMQWVRQAPGQGLEWMGAIYPGDGDTRYSQKFQGRVTMTRDTSISTVYMELSSLRSEDTAVYYCARPDGYYAAPYGMDYWGQGTLVTVSS VL: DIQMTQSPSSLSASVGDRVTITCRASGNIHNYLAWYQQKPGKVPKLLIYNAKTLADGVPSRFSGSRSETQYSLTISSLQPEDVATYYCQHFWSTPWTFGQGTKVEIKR",
    "observed": "~245 x to parent"
  },
  {
    "binder": "humanized 292.12.3.1 construct clone 27 (12VH1-gly + HC(F29L, M69L, R94F) + LC(F71Y)) (antibody, human IgG4, V domains shown) VH: QVQLVQSGAEVKKPGASVKVSCKASGYTLTRYWMQWVRQAPGQGLEWMGAIYPGDGDTRYSQKFQGRVTLTRDTSISTVYMELSSLRSEDTAVYYCAFPDGYYAAPYGMDYWGQGTLVTVSS VL: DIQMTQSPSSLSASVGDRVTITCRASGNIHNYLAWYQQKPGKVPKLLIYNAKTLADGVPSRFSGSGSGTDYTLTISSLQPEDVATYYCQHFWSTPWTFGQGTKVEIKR",
    "observed": "~1.3 x to parent"
  },
  {
    "binder": "humanized 292.12.3.1 construct clone 14 (12VH1-gly + HC(M69L, R71A, T73K, V78A, R94F) + LC(fback)) (antibody, human IgG4, V domains shown) VH: QVQLVQSGAEVKKPGASVKVSCKASGYTFTRYWMQWVRQAPGQGLEWMGAIYPGDGDTRYSQKFQGRVTLTADKSISTAYMELSSLRSEDTAVYYCAFPDGYYAAPYGMDYWGQGTLVTVSS VL: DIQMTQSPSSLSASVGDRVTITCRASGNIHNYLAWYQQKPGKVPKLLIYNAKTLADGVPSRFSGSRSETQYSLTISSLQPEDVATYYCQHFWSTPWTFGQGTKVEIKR",
    "observed": "~12 x to parent"
  }
]
